Test system: MDR1
Test: Permeability from apical to basolateral side of MDCK cells expressing MDR1 after 120 mins
Assay type: ADME, cell-based, Canis lupus familiaris
Conditions: dog, read-out: permeability
So I've got a bunch of compounds here, and I need their Papp A→B at 2 h values.
Answers are plain numbers, in ×10⁻⁶ cm/s.

Quick request: Papp A→B at 2 h for each listed item, please.
1. O=C(Cc1cccc2ncccc12)Nc1ccsc1-c1nnc[nH]1
2. COc1ccc(CC(=O)Nc2ccsc2-c2nc(N)n[nH]2)cc1
3. COc1ccc(CC(=O)Nc2ccsc2-c2cn(C)cn2)cc1
4. COc1ccc(CC(=O)Nc2ccsc2-c2cnccn2)cc1
5. O=C(Cc1cccc2cnccc12)Nc1ccsc1-c1cscn1
6. COc1ccc(CC(=O)Nc2ccsc2N2CCOC2=O)cc1

1: 6; 2: 24.3; 3: 7; 4: 22.2; 5: 26.1; 6: 26

Quick request: Papp A→B at 2 h for each listed item, please.
1. COc1ccc(CC(=O)Nc2ccsc2-c2c[nH]c(C)n2)cc1
2. COc1ccc(CC(=O)Nc2ccsc2-n2nccn2)cc1

[33.8, 15]

---

Biological target: Mitogen-activated protein kinase 9 (Homo sapiens)
Sequence (P45984 whole entry): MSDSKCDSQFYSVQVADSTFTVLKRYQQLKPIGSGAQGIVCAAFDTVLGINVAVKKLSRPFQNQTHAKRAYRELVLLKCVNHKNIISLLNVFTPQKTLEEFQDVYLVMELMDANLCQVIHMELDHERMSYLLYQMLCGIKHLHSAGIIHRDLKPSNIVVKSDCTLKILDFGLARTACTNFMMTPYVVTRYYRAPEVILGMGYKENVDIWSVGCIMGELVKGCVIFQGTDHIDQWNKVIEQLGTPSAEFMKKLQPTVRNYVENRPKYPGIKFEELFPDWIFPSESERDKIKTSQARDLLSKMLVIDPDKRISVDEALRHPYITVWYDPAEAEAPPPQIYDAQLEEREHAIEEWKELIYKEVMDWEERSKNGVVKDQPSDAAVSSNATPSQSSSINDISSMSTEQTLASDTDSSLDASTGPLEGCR
Assay: Inhibition of recombinant JNK2 after 60 mins by TR-FRET assay
pIC50: −log10 of the molar value.
pIC50 below 5 gives FALSE; pIC50 at or above it gives TRUE.

O=C(Cc1cccc2cnccc12)Nc1scnc1-c1ncn[nH]1 :: TRUE

Does pIC50 meet or surpass 5 for `O=C(Cc1cccc2cnccc12)Nc1scnc1-c1cscn1` ?
TRUE

Does pIC50 meet or surpass 5 for `COC(=O)c1sccc1NC(=O)Cc1ccccc1` ?
FALSE

Does pIC50 meet or surpass 5 for `CC(C)OC(=O)c1sccc1NC(=O)Cc1ccccc1` ?
FALSE

---

So I've got a bunch of compounds here, and I need their IC50 values.
Molecular target: Mitogen-activated protein kinase 10 (Homo sapiens, UniProt P53779)
Sequence (P53779 whole entry): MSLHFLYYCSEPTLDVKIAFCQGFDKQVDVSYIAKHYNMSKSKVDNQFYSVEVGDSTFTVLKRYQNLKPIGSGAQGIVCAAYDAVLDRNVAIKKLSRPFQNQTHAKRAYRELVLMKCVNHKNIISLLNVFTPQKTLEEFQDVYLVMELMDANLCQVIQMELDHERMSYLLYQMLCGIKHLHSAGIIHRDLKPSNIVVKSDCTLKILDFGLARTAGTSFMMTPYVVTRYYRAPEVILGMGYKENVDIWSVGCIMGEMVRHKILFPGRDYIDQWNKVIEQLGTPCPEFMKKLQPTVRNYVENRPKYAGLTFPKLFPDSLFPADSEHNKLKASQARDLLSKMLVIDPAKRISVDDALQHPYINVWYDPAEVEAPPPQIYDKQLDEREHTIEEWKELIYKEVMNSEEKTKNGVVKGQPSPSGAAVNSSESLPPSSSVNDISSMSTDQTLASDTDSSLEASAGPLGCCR
Test: Inhibition of recombinant JNK3 after 60 mins by TR-FRET assay
One number for each entry, in µM.

Solved cases (5 shown):
NC(=O)c1sccc1NC(=O)Cc1ccccc1 :: 4.4
O=C(Cc1cccc2cnccc12)Nc1ccsc1-c1cscn1 :: 0.16
COC(=O)c1sccc1NC(=O)Cc1ccccc1 :: 2.7
O=C(Cc1cccc2cnccc12)Nc1scnc1-c1cnccn1 :: 0.47
CC(=O)c1sccc1NC(=O)Cc1ccccc1 :: 17

Quick request: IC50 for each listed item, please.
1. COC(=O)c1ncsc1NC(=O)Cc1cccc2cnccc12
2. COC(=O)c1sccc1NC(=O)Cc1ccc(C(F)(F)F)cc1
3. COC(=O)c1sccc1NC(=O)Cc1ccncc1

1. 1.6
2. 6.9
3. 17.2

---

Molecular target: Mitogen-activated protein kinase 8 (Homo sapiens)
Test: Inhibition of recombinant JNK1 after 60 mins by TR-FRET assay
Our labelling divides records by IC50 into ranges: c1 = under 800 nM, c2 = from 800 nM up to 2000 nM, c3 = 2000 nM and over

Observe how each entry below is paired with its result.
COc1ccc(CC(=O)Nc2ccsc2-n2nccn2)cc1 :: c2
COC(=O)c1sccc1NC(=O)Cc1ccncc1 :: c3
COC(=O)c1sccc1NC(=O)Cc1cccc2cnccc12 :: c1
COc1ccc(CC(=O)Nc2ccsc2-c2cnccn2)cc1 :: c2
COC(=O)c1sccc1NC(=O)Cc1ccc2ccccc2c1 :: c1
COc1ccc(CC(=O)Nc2ccsc2-n2cncn2)cc1 :: c3
Cc1nnc(-c2sccc2NC(=O)Cc2cccc3ccccc23)o1 :: c2
COC(=O)c1n[nH]cc1NC(=O)Cc1cccc2ccccc12 :: c3
COC(=O)c1sccc1NC(=O)Cc1cccc2ccccc12 :: c1
COC(=O)c1ccccc1NC(=O)Cc1cccc2ccccc12 :: c3

Entry `O=C(Cc1cccc2cnccc12)Nc1ccsc1-c1cscn1` belongs to which category?
c1

Entry `COC(=O)c1ncsc1NC(=O)Cc1cccc2cnccc12` belongs to which category?
c2

Entry `O=C(Cc1cccc2ccccc12)Nc1ccsc1-c1nnco1` belongs to which category?
c3

---

Tested on: MDCK
Test: Efflux ratio of permeability from […] side in MDCK cells expressing p-gp after 120 mins
Format: ADME, cell-based, Canis lupus familiaris
Details: dog, 2 h
Classify: YES when Ratio is strictly less than 1; NO when Ratio is not.

Observe how each entry below is paired with its result.
COC(=O)c1ncsc1NC(=O)Cc1cccc2cnccc12 :: YES
O=C(Cc1cccc2cnccc12)Nc1scnc1-c1cnccn1 :: YES
O=C(Cc1cccc2cnccc12)Nc1scnc1-c1ncn[nH]1 :: NO
O=C(Cc1cccc2cnccc12)Nc1ccsc1-c1cscn1 :: NO
O=C(Cc1cccc2ncccc12)Nc1ccsc1-c1nnc[nH]1 :: NO

Please determine if `O=C(Cc1cccc2cnccc12)Nc1scnc1-c1cscn1` is below 1 in terms of Ratio.
NO

---

Test: Solubility of compound in Hank's buffered salt solution
Format: physicochemical
measurementLabel: solubility (µM)
Numbers only, in µM.

Please give measured solubility of the following entry: `O=C(Cc1cccc2cnccc12)Nc1ccsc1-c1cscn1`
90

---

Target: Mitogen-activated protein kinase 9 (Homo sapiens)
Experiment: Inhibition of recombinant JNK2 after 60 mins by TR-FRET assay
So I've got a bunch of molecules here, and I need their IC50 values.
Answers are plain numbers, in µM.

Solved cases (4 shown):
COC(=O)c1ccccc1NC(=O)Cc1cccc2ccccc12 :: 13.1
COC(=O)c1sccc1NC(=O)Cc1cccc2ncccc12 :: 3
O=C(Cc1cccc2cnccc12)Nc1scnc1-c1cnccn1 :: 2
COc1ccc(CC(=O)Nc2ccsc2-n2nccn2)cc1 :: 5

Please give measured IC50 of the following entry: `COC(=O)c1sccc1NC(=O)Cc1cccc2ccccc12`
14.6

---

Target: Mitogen-activated protein kinase 8 (Homo sapiens, UniProt P45983)
Sequence (P45983 whole entry): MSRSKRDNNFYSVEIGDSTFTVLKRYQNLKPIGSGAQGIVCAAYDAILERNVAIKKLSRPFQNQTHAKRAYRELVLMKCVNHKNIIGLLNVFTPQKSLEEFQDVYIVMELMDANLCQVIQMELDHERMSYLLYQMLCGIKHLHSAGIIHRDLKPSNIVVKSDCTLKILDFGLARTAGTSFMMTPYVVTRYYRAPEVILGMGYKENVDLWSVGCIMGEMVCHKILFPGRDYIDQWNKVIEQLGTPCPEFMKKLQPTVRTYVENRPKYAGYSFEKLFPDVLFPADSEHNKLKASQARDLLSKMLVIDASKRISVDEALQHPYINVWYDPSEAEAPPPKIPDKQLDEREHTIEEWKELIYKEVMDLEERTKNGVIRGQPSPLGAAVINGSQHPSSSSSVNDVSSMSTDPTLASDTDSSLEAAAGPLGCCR
Test: Inhibition of recombinant JNK1 after 60 mins by TR-FRET assay
So I've got a bunch of compounds here, and I need their IC50 values.

Solved cases (10 shown):
O=C(Cc1cccc2cnccc12)Nc1scnc1-c1ncn[nH]1 :: 0.71 µM
CC(=O)c1sccc1NC(=O)Cc1ccccc1 :: 6.3 µM
COc1ccc(CC(=O)Nc2ccsc2-c2c[nH]c(C)n2)cc1 :: 23.4 µM
CC(C)OC(=O)c1sccc1NC(=O)Cc1ccccc1 :: 0.5 µM
COc1ccc(CC(=O)Nc2ccsc2-c2cn(C)cn2)cc1 :: 23.9 µM
COC(=O)c1sccc1NC(=O)Cc1ccc(-c2ccncc2)cc1 :: 0.46 µM
COC(=O)c1scnc1NC(=O)Cc1cccc2ccccc12 :: > 50 µM
Cc1n[nH]c(-c2sccc2NC(=O)Cc2cccc3ccccc23)n1 :: 0.25 µM
COC(=O)c1sccc1NC(=O)Cc1ccc(OC)cc1 :: 0.8 µM
COC(=O)c1sccc1NC(=O)Cc1ccccc1 :: 0.7 µM

Quick request: IC50 for each listed item, please.
1. COC(=O)c1cnccc1NC(=O)Cc1cccc2ccccc12
2. O=C(Cc1cccc2ccccc12)Nc1ccsc1-c1ncn[nH]1
3. O=C(Cc1cccc2cnccc12)Nc1scnc1-c1cscn1
4. Cc1nc(-c2sccc2NC(=O)Cc2cccc3ccccc23)n(C)n1
5. COCCNC(=O)c1sccc1NC(=O)Cc1ccccc1

1: 6.4 µM; 2: 0.53 µM; 3: 0.048 µM; 4: 30.3 µM; 5: 2.3 µM

Quick request: IC50 for each listed item, please.
1. COC(=O)c1cscc1NC(=O)Cc1cccc2ccccc12
2. O=C(Cc1cccc2cnccc12)Nc1scnc1-c1cnccn1
3. COC(=O)c1cccnc1NC(=O)Cc1cccc2ccccc12
4. COC(=O)c1sccc1NC(=O)Cc1cccc2ncccc12
5. NC(=O)c1sccc1NC(=O)Cc1ccccc1
6. COc1ccc(CC(=O)Nc2ccsc2N2CCOC2=O)cc1
7. COC(=O)c1sccc1NC(=O)Cc1ccc(C(F)(F)F)cc1
8. COc1ccc(CC(=O)Nc2ccsc2-c2nc(C(F)(F)F)n[nH]2)cc1

1. 0.89 µM
2. 0.41 µM
3. > 50 µM
4. 0.3 µM
5. 2.6 µM
6. > 50 µM
7. 2 µM
8. 3.4 µM

Quick request: IC50 for each listed item, please.
1. COC(=O)c1nonc1NC(=O)Cc1cccc2ccccc12
2. COC(=O)c1nnsc1NC(=O)Cc1cccc2ccccc12

1. > 50 µM
2. > 50 µM

---

Test: Metabolic stability in mouse liver microsomes assessed as compound remaining after 30 mins
Assay type: ADME, Microsome
Conditions: read-out: Stability
measurementLabel: remaining at 0.5 h
Note: a bare number is incomplete; add the unit.

COc1ccc(CC(=O)Nc2ccsc2-c2ncco2)cc1 :: 9%

Quick request: remaining at 0.5 h for each listed item, please.
1. O=C(Cc1cccc2ccccc12)Nc1ccsc1-c1ncn[nH]1
2. O=C(Cc1cccc2ccccc12)Nc1ccsc1-c1nnco1
3. COc1ccc(CC(=O)Nc2ccsc2N2CCOC2=O)cc1
4. Cn1ccc(-c2sccc2NC(=O)Cc2cccc3ccccc23)n1
5. COc1ccc(CC(=O)Nc2ccsc2-c2cn(C)cn2)cc1
6. COc1ccc(CC(=O)Nc2ccsc2-c2c[nH]c(C)n2)cc1
7. COc1ccc(CC(=O)Nc2ccsc2-n2nccn2)cc1
8. Cc1nc(-c2sccc2NC(=O)Cc2cccc3ccccc23)n(C)n1

1: 1%; 2: 1%; 3: 26%; 4: 0%; 5: 1%; 6: 0%; 7: 1%; 8: 1%

Quick request: remaining at 0.5 h for each listed item, please.
1. O=C(Cc1cccc2cnccc12)Nc1scnc1-c1cscn1
2. COC(=O)c1ncsc1NC(=O)Cc1cccc2cnccc12
3. COc1ccc(CC(=O)Nc2ccsc2-c2cnccn2)cc1
4. Cc1cc(-c2sccc2NC(=O)Cc2cccc3ccccc23)n[nH]1
5. O=C(Cc1cccc2ncccc12)Nc1ccsc1-c1nnc[nH]1
6. O=C(Cc1cccc2ccccc12)Nc1ccsc1-c1cc[nH]n1
7. COc1ccc(CC(=O)Nc2ccsc2-c2nc(N)n[nH]2)cc1

50%
11%
0%
1%
23%
0%
44%

Quick request: remaining at 0.5 h for each listed item, please.
1. COc1ccc(CC(=O)Nc2ccsc2-c2nc(C(F)(F)F)n[nH]2)cc1
2. Cc1nnc(-c2sccc2NC(=O)Cc2cccc3ccccc23)o1
3. O=C(Cc1cccc2cnccc12)Nc1ccsc1-c1cscn1
4. Cc1n[nH]c(-c2sccc2NC(=O)Cc2cccc3ccccc23)n1

["8%", "0%", "1%", "1%"]

Quick request: remaining at 0.5 h for each listed item, please.
1. O=C(Cc1cccc2ccccc12)Nc1ccsc1-n1ccnc1
2. O=C(Cc1cccc2cnccc12)Nc1scnc1-c1cnccn1
3. O=C(Cc1cccc2cnccc12)Nc1scnc1-c1ncn[nH]1

["0%", "3%", "15%"]

Values from ChEMBL document CHEMBL1287787
